# Tested on: Escherichia coli TOP10;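 also: peptides expressed intracellularly from a pBAD plasmid library in pooled LB shake-flask culture, induced with 0.3% L-arabinose, DNA abundance read by NGS, three biological replicates, DESeq2 with apeglm shrinkage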
# assay overview: shrunken log2 fold change of peptide-encoding DNA abundance (4.5 h post-induction vs induction); higher = less antimicrobial activity (less host growth inhibition)
# assay conditions: time post-induction: 4.5 h; library: site-saturation at positions 5, 18, 19, 20
metric name: shrunken log2 fold change
Give only the figure.

>>> numeric_readout("RRIRHRPPRLPRPRPRPRLVPRP")
-0.113
>>> numeric_readout("RRIRDRPPRLPRPRPRPAKPPRP")
0.419
>>> numeric_readout("RRIRNRPPRLPRPRPRPTDVPRP")
-0.0793
>>> numeric_readout("RRIRHRPPRLPRPRPRPPVMPRP")
-0.0747
>>> numeric_readout("RRIRPRPPRLPRPRPRPSPMPRP")
-0.259

Ask | Suppose we examine the sequence RRIRVRPPRLPRPRPRPIPAPRP ; what shrunken log2 fold change value has been reported?
Reply | 0.000426

Ask | Suppose we examine the sequence RRIRLRPPRLPRPRPRPRGSPRP ; what shrunken log2 fold change value has been reported?
Reply | 0.16

Ask | Suppose we examine the sequence RRIRRRPPRLPRPRPRPIIAPRP ; what shrunken log2 fold change value has been reported?
Reply | 0.0198

Ask | Suppose we examine the sequence RRIRHRPPRLPRPRPRPWQLPRP ; what shrunken log2 fold change value has been reported?
Reply | -0.016

Ask | Suppose we examine the sequence RRIRVRPPRLPRPRPRPMGWPRP ; what shrunken log2 fold change value has been reported?
Reply | 0.202

Ask | Suppose we examine the sequence RRIRARPPRLPRPRPRPPVIPRP ; what shrunken log2 fold change value has been reported?
Reply | 0.0687

Ask | Suppose we examine the sequence RRIRARPPRLPRPRPRPKGPPRP ; what shrunken log2 fold change value has been reported?
Reply | 0.212

Ask | Suppose we examine the sequence RRIRNRPPRLPRPRPRPMQDPRP ; what shrunken log2 fold change value has been reported?
Reply | -0.0611
